Test system: HAP1 MTAP-intact cell line
protocolText: SDMA in-cell western assay, HAP1 MTAP-intact
Assay type: cell-based
conditionInfo: Homo sapiens, HAP1, SDMA in-cell western, HAP1 MTAP-intact; read-out: MTAP HAP1 intact IC50
quantityMeasured: IC50

Solved entries:
CCc1cc(NC(=O)C(=O)N2C[C@H](C)CC[C@H]2c2ccc(-c3cncs3)cc2)cnc1N (single isomer, unassigned) | 100 to 1000 nM
CCc1cc(NC(=O)C(=O)N2C[C@@H](C)CC[C@@H]2c2ccc3[nH]c(=O)ccc3c2)cnc1N (single isomer, unassigned) | 100 to 1000 nM
C[C@@H]1C[C@H](c2ccccc2)N(C(=O)C(=O)Nc2cncc(C(N)=O)c2)C[C@H]1C (racemic) | > 1000 nM
Cc1nc2cc([C@@H]3CC[C@@H](C)CN3C(=O)C(=O)Nc3cnc(N)c(C)c3)ccc2s1 (single isomer, unassigned) | > 1000 nM
C[C@@H]1CCN(C(=O)C(=O)Nc2cncc(C(N)=O)c2)[C@H](c2ccccc2)C1 (racemic) | > 1000 nM

Turning now to a further record.
Request: Value lookup for IC50; key = Cc1cc(NC(=O)C(=O)N2C[C@H](C)CC[C@H]2c2ccc(C(N)=O)s2)cnc1N (single isomer, unassigned)
Result: > 1000 nM

====

System: HAP1 MTAP-deleted cell line
protocolText: SDMA in-cell western assay, HAP1 MTAP-deleted
Assay type: cell-based
conditionInfo: Homo sapiens, HAP1, SDMA in-cell western, HAP1 MTAP-deleted; read-out: HAP 1 MTAP deleted IC50
Entries annotated with measured IC50

Cc1cc(NC(=O)C(=O)N2C[C@H](C)CC[C@H]2c2cccnc2)cnc1N (racemic) [Compound 146] | < 100 nM
Cc1ccc([C@@H]2CC(F)(F)[C@@H](C)CN2C(=O)C(=O)Nc2cncc(C(N)=O)c2)cn1 (single isomer, unassigned) [Compound 946] | > 1000 nM
Cc1nc2cc([C@@H]3CC[C@@H](C)CN3C(=O)C(=O)Nc3cnc(N)c(C)c3)ccc2[nH]1 (single isomer, unassigned) [Compound 963] | > 1000 nM
COc1ncc(NC(=O)C(=O)N2C[C@@H](C)CC[C@@H]2c2ccc3sc(CCN(C)C)nc3c2)cc1C(N)=O (racemic) [Compound 1281] | < 100 nM
Cc1cc(NC(=O)C(=O)N2C[C@@H](C)CC[C@@H]2c2ccncc2)cnc1N (single isomer, unassigned) [Compound 609] | > 1000 nM
COc1ncc(NC(=O)C(=O)N2C[C@@H](C)CC[C@@H]2c2ccc3sc([C@@H]4CCN(C)C4)nc3c2)cc1C(N)=O (racemic) [Compound 1278] | < 100 nM
CCc1cc(NC(=O)C(=O)N2C[C@@H](C)CC[C@@H]2c2ccc3c(c2)C(=O)N(C2CCN(C)CC2)C3)cnc1N (racemic) [Compound 1272] | < 100 nM
Cc1cc(NC(=O)C(=O)N2C[C@H](C)CC[C@@H]2c2ccc(-c3ccn[nH]3)s2)cnc1N (racemic) [Compound 577] | > 1000 nM
Cc1cc(NC(=O)C(=O)N2C[C@@H](C)CC[C@@H]2c2ccc(C(F)(F)F)c(Cl)c2)cnc1N (single isomer, unassigned) [Compound 703] | 100 to 1000 nM
C[C@H]1CC[C@H](c2cc3cn[nH]c3cc2F)N(C(=O)C(=O)Nc2cncc(C(N)=O)c2)C1 (single isomer, unassigned) [Compound 553] | 100 to 1000 nM

Request: Entry Cc1cc(NC(=O)C(=O)N2C[C@@H](C)CC[C@@H]2c2ccc3sc(CCN4CCCC4)nc3c2)cnc1N [Compound 1296] has what IC50?
Result: < 100 nM

Request: Any idea what IC50 was measured for Cc1cc(NC(=O)C(=O)N2C[C@@H](C)CC[C@@H]2c2cc3cn[nH]c3s2)cnc1N (single isomer, unassigned) [Compound 1392] ?
Result: < 100 nM

Request: Give the measured IC50 of [2H][C@]1(c2ccc(F)cc2)CC[C@H](C)CN1C(=O)C(=O)Nc1cncc(C(N)=O)c1 (racemic) [Compound 1008] .
Result: 100 to 1000 nM
